Data provenance is paper PMC12362615.

system: purified recombinant human IPMK kinase domain (Homo sapiens, UniProt Q8NFU5)
assay.info: IPMK IC50 determination, Kinase-Glo assay
Assay type: biochemical
test.parameters: supplementary csv; read-out: IPMK IC50
pIC50: −log10 of the molar value.
quantity.measured: pIC50

These solved cases illustrate the format of a correct answer.
c1cc(-c2onc3ccc(-c4nnn[nH]4)cc23)cc(C2CCN(C3CCC3)CC2)c1
7.50
Clc1cnc(Oc2cccc(-c3onc4ccc(-c5nnn[nH]5)cc34)c2)c(Cl)c1
7.14
c1ccc(-c2onc3ccc(-c4nnn[nH]4)cc23)cc1
7.44
Cc1cc(C)cc(-c2onc3ccc([C@H]4C[C@@H]4C(=O)O)cc23)c1 (racemic)
6.78
O=C(Nc1cccc(-c2onc3ccc(-c4nnn[nH]4)cc23)c1)C1CC1
7.52
FC(F)(F)Oc1ccc(-c2onc3ccc(-c4nnn[nH]4)cc23)cc1
7.74

a = c1cc(OC2CCNCC2)cc(-c2onc3ccc(-c4nnn[nH]4)cc23)c1
b = c1ccc(Oc2ccc(-c3onc4ccc(-c5nnn[nH]5)cc34)cc2)cc1
Sorting ascending by pIC50, which comes first: a or b ? Respond with the label that goes with your answer.
b
(b: 6.73, a: 7.50)
